Experiment: Half life in ICR mouse at 3 mg/kg, po and 1 mg/kg, iv
Format: ADME, organism-based
Conditions: in vivo
Quantity kind: half-life

Using known records, supply half-life for `C[C@@H]1CN(CCO)CCN1c1cc2[nH]c(SC(C)(C)C)nc2cc1Cl`
48.6 min

* * *

Each entry below lists one item and its recorded pIC50 value.
Biological target: Delta-type opioid receptor (Homo sapiens)
Sequence (P41143 whole entry): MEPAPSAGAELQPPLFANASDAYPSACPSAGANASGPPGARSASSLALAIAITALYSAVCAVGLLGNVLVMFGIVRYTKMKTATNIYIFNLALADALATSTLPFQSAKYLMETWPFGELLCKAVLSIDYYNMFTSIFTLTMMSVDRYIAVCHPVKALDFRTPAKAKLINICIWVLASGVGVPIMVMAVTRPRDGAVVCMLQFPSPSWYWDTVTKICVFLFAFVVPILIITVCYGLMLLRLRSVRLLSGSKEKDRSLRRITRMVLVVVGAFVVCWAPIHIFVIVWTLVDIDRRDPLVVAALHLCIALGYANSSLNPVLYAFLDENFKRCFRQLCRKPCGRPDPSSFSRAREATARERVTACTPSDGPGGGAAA
Assay: Displacement of [3H]naltrindole from human delta opioid receptor expressed in CHO cell membrane
Assay type: cell membranes
pIC50: −log10 of the molar value.

| Smi | Study system | pIC50 |
| --- | --- | --- |
| C[C@H]1CN(CCO)CCN1c1cc2[nH]c(SC(C)(C)C)nc2cc1Cl | Delta-type opioid receptor (Homo sapiens) | 6.62 |

Please give measured pIC50 of the following entry: `CC(C)(C)Sc1nc2cc(Cl)c(N3CCN(CCO)CC3)cc2[nH]1`
< 6.00

Consider the compound `C[C@@H]1CN(CCO)CCN1c1cc2[nH]c(SC(C)(C)C)nc2cc1Cl` and give its recorded pIC50.
< 6.00

* * *

Assay: Bioavailability in ICR mouse at 3 mg/kg, po and 1 mg/kg, iv
Format: ADME, organism-based
Details: in vivo
Quantity kind: bioavailability (%)
Report only the number, with the unit % understood.

Fill in bioavailability for record `C[C@@H]1CN(CCO)CCN1c1cc2[nH]c(SC(C)(C)C)nc2cc1Cl`
33

* * *

Target: Kappa-type opioid receptor (Homo sapiens)
Experiment: Agonist activity at human kappa opioid receptor expressed in CHO cell membrane by [35S]GTPgammaS binding assay
Quantity kind: pEC50
Just so you know, pEC50 here is -log10 of the concentration in molar units; reply with that number alone.

Please supply the value of reported pEC50 for the item `C[C@H]1CN(CCO)CCN1c1cc2[nH]c(SC(C)(C)C)nc2cc1Cl`
7.74

* * *

Test: Bioavailability in rhesus monkey at 3 mg/kg, po and 1 mg/kg, iv
Assay type: ADME, organism-based, Macaca mulatta
Conditions: in vivo
Quantity kind: bioavailability (%)
Hi! Could you send only the number? It should be in %, unit omitted.

Report bioavailability for `C[C@@H]1CN(CCO)CCN1c1cc2[nH]c(SC(C)(C)C)nc2cc1Cl`
37

* * *

Assay: Half life in Sprague-Dawley rat at 3 mg/kg, po and 1 mg/kg, iv
Type: ADME, organism-based
Settings: in vivo
Quantity kind: half-life (min)
Please respond with the number in min and leave the unit unwritten.

Supply recorded half-life for `C[C@@H]1CN(CCO)CCN1c1cc2[nH]c(SC(C)(C)C)nc2cc1Cl` here.
55.2

* * *

Molecular target: Kappa-type opioid receptor (Homo sapiens, UniProt P41145)
Sequence (P41145 whole entry): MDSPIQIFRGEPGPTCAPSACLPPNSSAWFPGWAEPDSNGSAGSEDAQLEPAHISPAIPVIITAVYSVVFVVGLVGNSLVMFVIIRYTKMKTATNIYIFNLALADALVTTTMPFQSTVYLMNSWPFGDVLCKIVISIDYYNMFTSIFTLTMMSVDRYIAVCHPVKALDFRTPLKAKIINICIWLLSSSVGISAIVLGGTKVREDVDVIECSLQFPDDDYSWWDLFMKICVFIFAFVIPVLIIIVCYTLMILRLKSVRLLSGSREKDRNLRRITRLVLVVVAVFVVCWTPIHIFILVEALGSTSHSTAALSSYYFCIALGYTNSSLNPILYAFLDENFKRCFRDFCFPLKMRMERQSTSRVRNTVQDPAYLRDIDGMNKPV
Assay: Displacement of [3H]U-69593 from human kappa opioid receptor expressed in CHO cell membrane
Type: cell membranes
Quantity kind: pIC50
Friendly reminder that pIC50 comes from taking -log10 of the concentration in mol/L.

| Smi | pIC50 |
| --- | --- |
| C[C@H]1CN(CCO)CCN1c1cc2[nH]c(SC(C)(C)C)nc2cc1Cl | 8.28 |

Please give measured pIC50 of the following entry: `C[C@@H]1CN(CCO)CCN1c1cc2[nH]c(SC(C)(C)C)nc2cc1Cl`
6.92

* * *

Biological target: UniProt:Q12809
Sequence (Q12809 whole entry): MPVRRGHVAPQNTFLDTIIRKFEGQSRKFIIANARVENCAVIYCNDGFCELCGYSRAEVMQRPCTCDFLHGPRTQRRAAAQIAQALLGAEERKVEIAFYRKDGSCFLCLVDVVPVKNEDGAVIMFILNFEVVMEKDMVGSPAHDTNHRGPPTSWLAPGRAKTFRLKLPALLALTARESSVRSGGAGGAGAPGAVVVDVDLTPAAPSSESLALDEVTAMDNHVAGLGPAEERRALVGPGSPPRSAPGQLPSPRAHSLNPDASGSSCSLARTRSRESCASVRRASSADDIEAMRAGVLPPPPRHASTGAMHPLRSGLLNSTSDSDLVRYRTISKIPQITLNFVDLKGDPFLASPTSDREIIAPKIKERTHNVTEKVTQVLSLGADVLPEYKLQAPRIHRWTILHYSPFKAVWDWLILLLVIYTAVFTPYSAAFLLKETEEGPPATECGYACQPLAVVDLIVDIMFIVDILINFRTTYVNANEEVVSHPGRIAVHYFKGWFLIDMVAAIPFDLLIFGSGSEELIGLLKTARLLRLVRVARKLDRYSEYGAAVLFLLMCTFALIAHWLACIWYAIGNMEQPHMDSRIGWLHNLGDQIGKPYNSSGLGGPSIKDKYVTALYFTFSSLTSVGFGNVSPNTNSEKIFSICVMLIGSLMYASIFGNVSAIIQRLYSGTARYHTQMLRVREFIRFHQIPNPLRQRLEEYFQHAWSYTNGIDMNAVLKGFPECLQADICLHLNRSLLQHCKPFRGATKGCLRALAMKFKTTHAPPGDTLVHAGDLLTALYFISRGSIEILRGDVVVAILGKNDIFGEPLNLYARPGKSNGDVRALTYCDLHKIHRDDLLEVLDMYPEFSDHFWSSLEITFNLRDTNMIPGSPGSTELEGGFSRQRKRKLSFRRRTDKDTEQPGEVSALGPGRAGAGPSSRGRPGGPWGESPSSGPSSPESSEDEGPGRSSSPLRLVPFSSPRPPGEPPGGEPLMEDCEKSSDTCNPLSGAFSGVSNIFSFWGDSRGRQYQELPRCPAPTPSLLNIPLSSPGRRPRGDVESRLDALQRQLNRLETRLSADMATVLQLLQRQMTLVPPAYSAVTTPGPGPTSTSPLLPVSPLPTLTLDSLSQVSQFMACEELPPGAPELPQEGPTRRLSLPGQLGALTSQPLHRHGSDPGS
Test: Inhibition of human ERG at 10 uM
Quantity kind: inhibition at 10 µM
Quick note: unit goes after the number.

Could you please provide reported inhibition at 10 µM for `C[C@@H]1CN(CCO)CCN1c1cc2[nH]c(SC(C)(C)C)nc2cc1Cl` ? Thanks!
86%

* * *

Assay: Bioavailability in Sprague-Dawley rat at 3 mg/kg, po and 1 mg/kg, iv
Type: ADME, organism-based
Conditions: in vivo
Quantity kind: bioavailability
Answer format: value, then unit.

Using known records, supply bioavailability for `C[C@@H]1CN(CCO)CCN1c1cc2[nH]c(SC(C)(C)C)nc2cc1Cl`
29%

* * *

Assay: Metabolic stability in human liver microsomes assessed as drug remaining after 30 mins
Type: ADME, Microsome
Settings: read-out: Stability
Quantity kind: remaining at 0.5 h

| Compound | remaining at 0.5 h |
| --- | --- |
| CC(C)(C)Sc1nc2cc(Cl)c(N3CCN(CCO)CC3)cc2[nH]1 | 71% |

Quote remaining at 0.5 h reported for CCC(CC)Sc1nc2cc(Cl)c(N3CCN(CCO)C(C)C3)cc2[nH]1 (racemic) please.
17%

Give the reported value of remaining at 0.5 h for this record: `CCC(CC)Sc1nc2cc(Cl)c(N3C[C@@H]4C[C@H]3CN4CCO)cc2[nH]1`
63%

Please supply the value of reported remaining at 0.5 h for the item `C[C@@H]1CN(CCO)CCN1c1cc2[nH]c(SC(C)(C)C)nc2cc1Cl`
87%

Provide remaining at 0.5 h value for the following compound: `CCC(CC)Sc1nc2cc(Cl)c(N3CCN(CCO)C(C)(C)C3)cc2[nH]1`
7%

Look up remaining at 0.5 h of `C[C@H]1CN(CCO)CCN1c1cc2[nH]c(SC(C)(C)C)nc2cc1Cl` and report it.
70%

Complete the entry with remaining at 0.5 h for `CCC(C)(CC)Sc1nc2cc(Cl)c(N3CCN(CCO)CC3)cc2[nH]1`
36%

* * *

Target: Delta-type opioid receptor (Homo sapiens)
Test: Agonist activity at human delta opioid receptor expressed in CHO cell membrane by [35S]GTPgammaS binding assay
Quantity kind: EC50 (nM)
Supply the numeric figure in nM, leaving out any unit text.

Give recorded EC50. `C[C@H]1CN(CCO)CCN1c1cc2[nH]c(SC(C)(C)C)nc2cc1Cl`
14

* * *

Molecular target: Kappa-type opioid receptor (Homo sapiens)
Test: Agonist activity at human kappa opioid receptor expressed in CHO cell membrane by [35S]GTPgammaS binding assay
Quantity kind: IC50 (nM)
Lab book: enter the figure in nM, no units written.

Quickly give me recorded IC50 for `C[C@@H]1CN(CCO)CCN1c1cc2[nH]c(SC(C)(C)C)nc2cc1Cl`
180

* * *

Test system: Mus musculus
Experiment: Biodistribution in ICR mouse brain at 30 mg/kg, po after 60 mins
Format: ADME, organism-based
Parameters: dose 30 mg/kg, route oral
Details: in vivo, 1 h
Quantity kind: Drug uptake (µmol/kg)
Enter your answer as a number in µmol/kg; do not include the unit.

Tell us which Drug uptake value is on record for `C[C@@H]1CN(CCO)CCN1c1cc2[nH]c(SC(C)(C)C)nc2cc1Cl`
1.04

* * *

Biological target: Delta-type opioid receptor (Homo sapiens)
Experiment: Agonist activity at human delta opioid receptor expressed in CHO cell membrane by [35S]GTPgammaS binding assay
Format: functional, cell membranes
Quantity kind: IC50 (nM)
Numeric only. Scale: nM

Respond only with IC50 recorded for `C[C@@H]1CN(CCO)CCN1c1cc2[nH]c(SC(C)(C)C)nc2cc1Cl`
1200

* * *

Assay: Clearance in rhesus monkey at 3 mg/kg, po and 1 mg/kg, iv
Type: ADME, organism-based, Macaca mulatta
Settings: in vivo
Quantity kind: clearance (mL/min/kg)
Respond numerically; units are mL/min/kg and should not be typed.

Kindly indicate its recorded clearance. Item: `C[C@@H]1CN(CCO)CCN1c1cc2[nH]c(SC(C)(C)C)nc2cc1Cl`
20

* * *

Biological target: Mu-type opioid receptor (Homo sapiens, UniProt P35372)
Sequence (P35372 whole entry): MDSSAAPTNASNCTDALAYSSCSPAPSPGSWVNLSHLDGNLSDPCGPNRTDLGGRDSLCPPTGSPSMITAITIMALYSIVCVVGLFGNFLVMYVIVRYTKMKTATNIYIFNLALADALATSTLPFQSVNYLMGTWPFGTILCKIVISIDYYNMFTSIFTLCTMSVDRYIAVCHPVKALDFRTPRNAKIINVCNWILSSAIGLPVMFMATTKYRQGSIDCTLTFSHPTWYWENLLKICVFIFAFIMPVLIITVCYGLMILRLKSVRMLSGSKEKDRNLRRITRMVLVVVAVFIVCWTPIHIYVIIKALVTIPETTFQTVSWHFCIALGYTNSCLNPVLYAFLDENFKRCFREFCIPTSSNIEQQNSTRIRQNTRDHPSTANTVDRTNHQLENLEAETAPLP
Test: Displacement of [3H]diprenorphin from human mu opioid receptor expressed in CHO cell membrane
Assay type: cell membranes
The following compounds are listed with their measured IC50 values.
Answer with a number only, understood to be in nM.

| Smi | IC50, nM |
| --- | --- |
| C[C@@H]1CN(CCO)CCN1c1cc2[nH]c(SC(C)(C)C)nc2cc1Cl | 1900 |

Give me measured IC50, please, for this compound: `C[C@H]1CN(CCO)CCN1c1cc2[nH]c(SC(C)(C)C)nc2cc1Cl`
67

* * *

Target: Mu-type opioid receptor (Homo sapiens, UniProt P35372)
Test: Agonist activity at human mu opioid receptor expressed in CHO cell membrane by [35S]GTPgammaS binding assay
Type: functional, cell membranes
Measured IC50 by item
Give the value, in units of nM, as a plain number.

| Smi | Study system | IC50 [nM] |
| --- | --- | --- |
| C[C@H]1CN(CCO)CCN1c1cc2[nH]c(SC(C)(C)C)nc2cc1Cl | Mu-type opioid receptor (Homo sapiens, UniProt P35372) | 25 |

Shifting focus to the molecule that follows.
Give the reported value of IC50 for this record: `C[C@@H]1CN(CCO)CCN1c1cc2[nH]c(SC(C)(C)C)nc2cc1Cl`
97

These measurements were taken from ChEMBL document CHEMBL1150320.
